Provenance of the data: PubChem BioAssay (NCI)

Please go through the items and note down their log10(TGI).
Test system: U251 CNS
Test: NCI tumour cell line growth inhibition, 48 h
Quick note: numbers are log10 of TGI, with µM as the unit.

molecule	testedTarget	log10(TGI)
CCC12C[N+]3([O-])CCc4c([nH]c5ccccc45)C(C(=O)OC)(c4cc5c(cc4OC)N(C)C4C(O)(C(=O)OC)C(OC(C)=O)C6(CC)C=CCN7CCC54C76)CC(C3)C1O2 (centres undefined)	U251 CNS	1.94

Batch lookup, log10(TGI) per entry.
1. CC(C)(C)C[C@H]1NC(C(=O)NCC[C@H](O)CO)[C@H](c2cccc(Cl)c2)[C@@]12C(=O)Nc1cc(Cl)c(F)cc12 (some centres undefined)
2. COc1cc2c(cc1OC)C(N(C)C)C(c1ccccc1)=C2Cl (centres undefined)
3. Cc1ccc2c(ccc3c[n+]4c5ccccc5ccc4n32)c1
4. Nc1cc2cccc[n+]2c2cc(Cl)ccc12

[1.48, 1.48, 0.33, 1.40]
